The measurements presented in this section are drawn from patent US20250195685A1.

- Tested Target: T1, human CD8αα homodimer, recombinant protein (Acro Biosystems) (human, UniProt P01732 22-182)
- T1 construct: also called CD8αα antigen; biotinylated CD8α recombinant protein (CDA-H82E3)
- T1 sequence (P01732 22-182 limits assumed): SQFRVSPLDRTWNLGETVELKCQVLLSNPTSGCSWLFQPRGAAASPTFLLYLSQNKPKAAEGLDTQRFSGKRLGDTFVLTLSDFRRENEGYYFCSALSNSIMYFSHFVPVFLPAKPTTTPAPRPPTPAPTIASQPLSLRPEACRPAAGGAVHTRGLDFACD
- Protocol Details: BLI steady state, whole hIgG1-LALAPA antibody on CD8α-His (Ni-NTA sensor), 30 °C
pKd: −log10 of the molar value.
Measurement Name: pKd

>>> reported("CBD1050 (antibody, human IgG1, kappa, L234A L235A, V domains shown, also called h1017-H10/L6 whole antibody hIgG1-LALAPA) VH: QVQLVQSGAEVKKPGASVKVSCKASRYTFTDYNLHWVRQAPGQGLEWIGFIYPYNGGTGYAQKFQGRVTLTVDYSTSTAYMELSSLRSEDTAVYYCARDHRYNEGVSFDYWGQGTLVTVSS VL: EIVLTQSPGTLSLSPGERATLSCRASESVDGFGNSFMNWYQQKPGQAPRLLIYLASNLESGVPARFSGSGSRTDFTLTISRLEPEDFAVYYCQQNNEDPYTFGQGTKVEIKR")
8.19
